Reference source: paper PMC4911001

tested on: drug resistant LOVO/DX line versus drug sensitive LoVo line; experiment: Resistance index (RI), LoVo/DX versus LoVo; assay type: cell-based, human; conditions: RI = IC50 LoVo/DX / IC50 LoVo; 0<RI<2 able to overcome drug resistance; 2<RI<10 moderate ability; RI>10 no influence
Reported Resistance index (RI) values follow for various compounds
Enter a number only.

>>> obs_value("CC(C)=CCCC(C)=CC(=O)OC[C@H](COP(=O)([O-])OCC[N+](C)(C)C)OC(=O)C=C(C)CCC=C(C)C (mixture of isomers)")
1.12

Prompt: Dear colleague, I am looking for the recorded Resistance index (RI) of the following compound: CCCCCCCCCCCCCCCC(=O)OC[C@H](COP(=O)([O-])OCC[N+](C)(C)C)OC(=O)C=C(C)CCC=C(C)C (mixture of isomers)
Response: 1.08

Prompt: Consider the compound CC(C)=CCCC(C)CC(=O)OC[C@@H](O)COP(=O)([O-])OCC[N+](C)(C)C (stereo partly shown) and give its measured Resistance index (RI).
Response: 1.93

Prompt: Which Resistance index (RI) reading was recorded for the compound CC(C)=CCCC(C)=CC(=O)O [Compound 1a, Geranic acid, reference compound] ?
Response: 1.87

----------
system: HepG2 (liver cancer); test: Antiproliferative assay in vitro, SRB test, HepG2; assay type: cell-based, human; conditions: 72 hours exposure, mean ± SD of 3–5 independent experiments, n.a. = no activity in concentration of 5, 25, 125, 625 μM
readout-name: IC50 (µM)
# output: bare number, implied unit µM

Prompt: Suppose we examine the molecule N.N.[Cl][Pt][Cl] [Cisplatin, reference compound] ; what IC50 value has been reported?
Response: 2.38
